// provenance: the nanobody polyreactivity screen of Harvey et al. (2022)

Test: yeast display, Sf9 membrane polyspecificity reagent, FACS + sequencing; frameworks hold sequencing errors
Measured Quantity: polyreactivity (PSR sort gate)

Use these answered entries as a reference point.
Req: Requested read-out: polyreactivity (PSR sort gate). Entry: QFQLVESGGGLFQAGARLRLSSAASGNIFNWYALGLYRQAPGKEREFVACISTSGGSTYYADSVKGRFTISRDNAKNSVYLQMNSLKPEDTAVYYCNAKFFVYECLPGPSYWYDYWGQGTQVTVSS
Resp: high polyreactivity

Req: What value of measured polyreactivity (PSR sort gate) is listed for QVQLVESGGGLVQAGGSLRLSCAASGRTFWTYTMGWYRQAPGKEREFVAAITFGDGSTSYADSVKGRFTISRDNAKNTVYFQMNSLKPEDTAVYYCAKRWRRRFVDVWSLYDYWGQGTQVTVSS ?
Resp: low polyreactivity

Req: Consider the sequence QVQLVESAGGLVQAGGSLRLSCAASGYTFYRNAMGCYRQAPGKERELVAAISWRGGSTYYADSVKGRFTISRDNAKNTVYLQMNSLKPEDTAVYYCAAYFSYGGSTTGEEYWGQGTQVTVSS and give its measured polyreactivity (PSR sort gate).
Resp: high polyreactivity

Req: Would you kindly share the measured polyreactivity (PSR sort gate) for QVQLVESGGGLVQAGGSLRLSCAASGLTLRNYAKGWYREAPGKDRELVAAITTGGGRTFYADSVKGRFTISRDKAKNTVYLETNSLNPEDTAVYYCAAERAILSSDKQSLWRFDYWGQGTQVTVSS ?
Resp: low polyreactivity

Req: Given the entry QVQLVESGGGLVQPGGSLRLSCAASGSIFSYNTMGWYRQAPGKERELVAAISGRGGSTNYADSVKGRFTISRDNAKNTVYLQMNSLKPEDTAVYYCAKETWVPYRNGFFPLKGDYWGQGTQVTVSS , report its measured polyreactivity (PSR sort gate).
Resp: low polyreactivity

Req: Param item = QDQLVESGGGLVQAGCSLLLSCAASGRIFAKNAMVCYRQAPGKERELVATSSWSGSSTRYADSVKGRFTISRDYAKNSVYLQMNSLKPEDTAVYYCAARPTPRRTPYTATYDYWGQGTQVTVSS ; retrieve measured polyreactivity (PSR sort gate).
Resp: high polyreactivity

Next:
Req: Item under review: QVQLVESGGGLVQAGGSLRLSCAASGRIFYDNTMGWYRQAPGKERELFAAITWRVGNTNYADSVKGRFTISRDNAKNTVYLQMNSLNPEDTAVYYCAVRLLADDGYPAVVGYDYWGQGTQVTVSS . Reported polyreactivity (PSR sort gate)?
Resp: low polyreactivity

Req: Please report the recorded polyreactivity (PSR sort gate) for QVQLVESGGGLVQAGGSLRLSCAASGSTFLVYAMGWYRQAPGKERELVAVIDNGGDTYYADSVKGRFTISRDNAKNTVYLQMNSLKPEDTEVYYCAADLSYLGYWEYDYWGQGTQVTVSS .
Resp: low polyreactivity

Req: State the recorded polyreactivity (PSR sort gate) for this entry: QVQLVESGGGLVQAGGSLRLSCAASGFTFALNAMGWYRQAPGKERELVAAISSRGGSTYYADSVKGRFTISRDNAKNTVYLQMNSLKPEDTAGYYCAKDYKADSRFSPYGYWGQGTQVTVSS
Resp: high polyreactivity

Req: # input sequence: QVQLVESGGGLVQAGGSLRLSCAASGFTFSYNTMGWYRQAPGKERELVAAIDGSGGSTYYADSVKGRFTISRDNAKNTVYLQMNSLKPEDTAVYYCAAEWYRGGEYRRYDYWGQGTQVTVSS ; wanted: its polyreactivity (PSR sort gate)
Resp: high polyreactivity

Req: I have this sequence here, QVQLVESGGGLVQAGGSLRLSCAASGFIFRGYAMGWYRQAPGKERELVAAISRRGGSTYYADSVKGRFTISRDNAKNTVYLQMNSLKPEDTAVYYCNARIRYVYWHSYDYWGQGTQVTVSS , and I need its recorded polyreactivity (PSR sort gate).
Resp: high polyreactivity

Req: Please report the recorded polyreactivity (PSR sort gate) for QVQLVESGGGLVQAGGSLRLSCAASGSILGWYAMGWYRQAPGKERQLVAAISYSGTSTYYADSVKGRFTISRDNAKNPVYLQMNSLNPEDTAVYYCNAFFSSRYYRVGSGYDYWGQGTQVTVSS .
Resp: high polyreactivity
